# System: SNB-75 CNS
# Assay Details: NCI tumour cell line growth inhibition, 48 h; in the data active means GI50 below about 0.43 µM; inactive means the rest
Assign a class; possible classes are active, inactive

Look up the recorded call for Cc1nc2sc(C(=O)Nc3cccc4c3OCCO4)c(N)c2cc1C(C)O (stereo not given) in this test.
inactive

# outcome recorded in this test, key = O=C(N/N=C/c1coc2ccc(Cl)cc2c1=O)c1cc(O)c(O)c(O)c1
inactive

Hi, sorry to bother you, what did the test record for Cc1c(C(=O)Nc2ccc(Oc3ccnc4cc(OCC(C)(C)O)ccc34)c(F)c2)c(=O)n(-c2ccccc2)n1C ?
inactive

What classification did N#C/C(=C\c1ccccn1)c1nc2ccccc2o1 end up with in this test?
inactive

Hey, what did the test say about CCOC(=O)c1ccc(N[C@@H]2c3cc4c(cc3C(c3cc(OC)c(O)c(OC)c3)[C@H]3C(=O)OCC32)OCO4)cc1 (stereo not given in full) ?
active

// param item: O=C(/C=C/c1cccc(Cl)c1)c1ccccc1 ; yields the recorded call
inactive

I'd appreciate the recorded outcome for CCn1cnc(C[C@H](NC(=O)[C@@H](NC(=O)Nc2cc(C(F)(F)F)cc(C(F)(F)F)c2)C(C)(C)C)C(=O)OC)c1 from this test.
inactive

Per the assay record, what outcome was assigned to Cc1cc(N)c2cc(NC(=O)/C=C\c3ccccc3Cl)ccc2n1 ?
inactive

Call for entry O=C1C=CC(=O)N1c1ccc2ccccc2c1 :
inactive

Could you check what this test reported for Cc1nc2ccccc2c(/C=C/c2ccc(F)cc2)c1C(=O)/C=C/c1ccccc1 ?
inactive

Per the assay record, what outcome was assigned to COc1cccc(/C=C2\COc3ccc(O)c(O)c3C2=O)c1OC ?
inactive

Record lookup: outcome of this test for O=C(Nc1cccc2[nH]c(C(F)(F)F)nc12)c1ccc(Br)cc1F ?
inactive

Check the results log: what was the call for C=CCC(NCc1ccccc1)c1cn(C(=O)OCC)c2ccccc12 (stereo not given) ?
inactive

Recorded test outcome, item Cc1nc2ccccc2c(/C=C/c2ccc(C(F)(F)F)cc2)c1C(=O)/C=C/c1ccccc1
inactive

Name the outcome recorded for CC(C)C[C@H](NC(=O)[C@@H](N)Cc1cccc2ccccc12)B(O)O in the assay.
inactive

###

# Tested on: U251 CNS
# Assay Details: NCI tumour cell line growth inhibition, 48 h
Value Type: TGI

Which TGI value belongs to C=CCC(NCc1ccccc1)c1cn(C(=O)OCC)c2ccccc12 (stereo unspecified) ?
39.3 µM

TGI for COc1ccc(/C(=N/O)c2cc(F)c(F)c(OC)c2F)cc1O ?
> 100 µM

Which TGI value belongs to CCN(CC)CCNc1ccc2nc(C)n3c4ccc(OC)cc4c(=O)c1c23 ?
20.6 µM

Which TGI value is on record for COC(=O)C1=CCC[C@H]2[C@@]1(COC(C)=O)CC[C@@H](C)[C@]2(C)CC(=O)c1ccoc1 ?
> 50 µM

Which TGI is reported for this molecule? CN(C)Cc1cc(C(=O)/C=C/c2ccc(Cl)cc2Cl)cc(CN(C)C)c1O
15.7 µM

Give its TGI value. Item: COc1cnc2oc3ccc(O)cc3c2c1-c1ccccc1
> 100 µM

###

# System: LOX IMVI melanoma
# Assay Details: NCI tumour cell line growth inhibition, 48 h
Value Type: TGI

Fill in: TGI of CC(=O)NC1=C(NCCO)C(=O)c2ccccc2C1=O is ___
> 50 µM

Which TGI is reported for this molecule? COP(=O)(OC)[C@@](O)(c1ccccc1)[C@@H](O)[C@@H](O)c1ccccc1
37.9 µM

Quick check: TGI of COc1cccc(/C=C2\COc3ccc(O)c(O)c3C2=O)c1OC ?
3.08 µM

Reported TGI, molecule O=C(O)C(C1NCCS1)N1C(=O)c2ccccc2C1=O (stereo unspecified) : ____
> 100 µM

Which value of TGI has been reported for c1ccc(CSCCC(SCc2ccccc2)SCc2ccccc2)cc1 in the records?
> 10 µM

What value of measured TGI is listed for CCOC(=O)C(c1ccsc1)P(=O)(OCC)OCC (stereo unspecified) ?
19.3 µM

###

# Tested on: NCI-H460 lung
# Assay Details: NCI tumour cell line growth inhibition, 48 h
Value Type: TGI

Report TGI for Nc1ncnc2occ(-c3ccc(NC(=O)Nc4cccc(C(F)(F)F)c4)cc3)c12 please.
9.3 µM

Which value of TGI has been reported for C=C1C(=O)OC2/C=C(\CO)C3OC3C3OC3(C)CC(OC(=O)/C(=C/C)COC(C)=O)C12 (centres undefined) in the records?
28.4 µM

Any idea what its TGI is? The molecule is O=C(Cn1c(C(=O)/C=C/c2ccc(Cl)c(Cl)c2)nc2ccccc21)c1ccccc1
39.4 µM

So what does the record say about TGI for CC(C)(C)c1cc(C(C)(C)C)c(SSc2c(C(C)(C)C)cc(C(C)(C)C)c(O)c2O)c(O)c1O ?
13.2 µM

Requested field: TGI. Item: CC1Nc2ccccc2NC1C=C(C#N)C#N (centres undefined)
42.5 µM

Record request: TGI value, item CN1CC[C@@]2(c3cccc(O)c3)CC(=O)/C(=C/c3ccc(Cl)c(Cl)c3)[C@H]1C2
4.72 µM

Recorded TGI for CCOC(=O)N1C/C(=C\c2ccc(N(C)C)cc2)C(=O)/C(=C/c2ccc(N(C)C)cc2)C1 , please?
> 100 µM

Can you look up the measured TGI of COc1ccc(/C=C2\CC3C4CC=C5C[C@@H](N6CCCC6)CC[C@]5(C)C4CC[C@]3(C)[C@H]2O)cc1OC (some centres undefined) for me?
17.4 µM

Given the molecule O=C(CC(=O)n1nc(-c2ccccc2)c(N=Nc2ccc([N+](=O)[O-])cc2)c1-c1ccccc1)Nc1ccc(Cl)cc1 , what is its reported TGI?
> 100 µM

Query: TGI; subject: O=C1c2c[n+](Cc3ccccc3)ccc2-c2nc3ccccc3c3ccnc1c23
0.499 µM

Consider the molecule shown here: C=CC(=O)N1CCN(c2nc(OC[C@@H]3CCCN3C)nc3c(F)c(-c4nc(N)cc(C)c4C(F)(F)F)c(Cl)cc23)[C@@H](C)C1 What is its recorded TGI?
5.39 µM

// lookup TGI for COc1cnc2oc3ccc(O)cc3c2c1-c1ccccc1
> 100 µM

Entry Cc1nc2sc(C(=O)Nc3cccc4c3OCCO4)c(N)c2cc1C(C)O (centres undefined) has what TGI?
> 100 µM

// TGI lookup, key: Cc1nsc2cc(Cl)n(C)c(=O)c12
> 100 µM

So what does the record say about TGI for COc1ccc(-c2c(C#N)c(N)nc(Sc3ccccc3N)c2C#N)cc1 ?
> 100 µM

Please give the measured TGI for this molecule: O=C1c2ccccc2-n2c1nc1ccc([N+](=O)[O-])cc1c2=O
> 100 µM

// query TGI value for entry Cc1nc2ccccc2c(/C=C/c2ccc(C(F)(F)F)cc2)c1C(=O)/C=C/c1ccccc1
2.57 µM

# get_value(readout='TGI', item= Cc1ccc(S(=O)(=O)NC(=O)Nc2ncn[nH]2)cc1 )
> 100 µM

Query (molecule): NNC(=S)N/N=C(\c1nc2ccc(Cl)cc2[nH]c1=O)C(O)c1cccc([N+](=O)[O-])c1 (centres undefined) ; field requested: TGI
> 100 µM

Need TGI, item COc1cc(/C=C2\CC3C4CC=C5C[C@@H](N6CCCC6)CC[C@]5(C)C4CC[C@]3(C)[C@H]2OC(C)=O)ccc1OCCCn1ccnc1 (some centres undefined)
> 19.2 µM

Please give the measured TGI for this molecule: CN(C)/C=N/S(=O)(=O)c1nn2c(C=O)c(-c3ccc(-c4ccccc4)cc3)nc2s1
13.7 µM

// TGI lookup, key: CC(=O)O[C@H]1[C@@H](N2CCCCC2)C[C@H]2[C@@H]3CC=C4C[C@@H](N5CCCC5)CC[C@]4(C)[C@H]3CC[C@@]21C
> 100 µM

Name the recorded TGI for O=C(c1ccsc1)c1nccc2c1cnc1ccccc12 .
> 100 µM

Form field: reported TGI of C[C@H]1CCC/C=C/[C@@H]2C[C@H](O)C[C@H]2[C@H](O)C(O)C(O)C(=O)O1 (some centres undefined)
> 100 µM

Requested read-out: TGI. Entry: CCN1C(c2ccccc2)=CC(c2ccccc2)(C(Cl)(Cl)Cl)C=C1c1ccccc1
23.3 µM

Requested read-out: TGI. Entry: C=Cc1c(-c2ccccc2)cnc2[nH]c3ccccc3c12
> 50 µM

Consider the molecule shown here: CCCCCCCCCCCCCCCCNc1nc(=O)n(C2CC(O)C(COP(=O)(O)OC3CC(n4cc(F)c(=O)[nH]c4=O)OC3CO)O2)cc1F (centres undefined) What is its recorded TGI?
22.6 µM

Which value of TGI has been reported for CCc1n[nH]c(=O)n1N in the records?
> 100 µM

State the recorded TGI for this entry: NC(N)=NS(=O)(=O)c1ccc(NCc2cccc3c(=O)c4ccc(Cl)cc4oc23)cc1
7.3 µM

Recorded TGI of Cc1ccnn1CCc1ccc(Cl)cc1Cl , please.
> 100 µM

I am curious: what TGI value has been reported for CC[C@@]1(O)C(=O)OCc2c1cc1n(c2=O)Cc2cc3c(N)c(OC)ccc3nc2-1 ?
0.111 µM

// lookup TGI for Cc1ccccc1-c1cc(=O)c2cc(C)c(C)c(C(=O)O)c2o1
> 100 µM

Sample O=C1C=CC2(C=C1)O[C@H](CCc1ccccc1)[C@@H](CCc1ccccc1)O2 — what was its TGI?
> 100 µM

Item under review: COc1cc(Br)c(C=Nc2cccc3ccc(OS(=O)(=O)c4ccc([N+](=O)[O-])cc4)cc23)cc1OC . Reported TGI?
> 100 µM

Fill blank: measured TGI of the molecule O=C(OCc1ccccc1)N1N=NC2C3CC(OCc4ccccc4)(OCc4ccccc4)C(O3)C21 (centres undefined) is ____.
> 100 µM

Need TGI, item CN(C)Cc1nsc(N(C)C)n1
> 100 µM

Entry under review: COc1cccc(/C=N/[N+](C)(C)C)c1O . Reported TGI?
> 10 µM

Report TGI for COc1ccc(-n2c(C)nc3ccc(NC4OC(COC(C)=O)C(OC(C)=O)C(OC(C)=O)C4OC(C)=O)cc3c2=O)cc1 (centres undefined) please.
> 100 µM

Can you share its TGI? I mean this molecule: C#CCNC(CCCN=C(N)N)C(=O)O (centres undefined)
> 100 µM

Where do the numbers come from? From PubChem BioAssay (NCI).
